Data provenance is PubChem BioAssay AID686949.

# TGT: Kallikrein-7 (Homo sapiens)
# ASSAY INFO: activation of human kallikrein-7 proenzyme – biochemical, fluorescence intensity, triplicate, confirmation (AID 686949)
# CONDITION PARAMETERS: purified proKLK7, EDANS-DABCYL substrate fluorescence; at 7 µM; hits give high values; scaled: vehicle 0, mature enzyme 100
About 2,200 (69%) of roughly 3,200 compounds were called active. So high a share suggests a set chosen from earlier hits. The list is a sample of the results.
MEASURED PARAMETER: activation (%)

COMPOUND | NUMERIC RESULT
CC(=O)Nc1ccc(S(=O)(=O)NCC(=O)OCc2cc(=O)oc3ccc4ccccc4c23)cc1 | 218
CC(=O)Oc1ccc2c(C)c(CC(C)O)c(=O)oc2c1 (stereo not given) | 72.5
CN(C)CCN1CCN(c2cc(-c3cccc(Cl)c3)nc3ccnn23)CC1 | 0.23
COC(=O)C1=NN(c2ccccc2)C2C(=O)N(c3ccccc3OC)C(=O)C12 (stereo not given) | 21.2
CCOc1ccc(-n2c(SCC(=O)Nc3cc(C)c(NC(=O)c4ccccc4)cc3OC)nnc2-c2cccs2)cc1 | 15.9
CCOc1ccc(N2C(=O)CC(N(O)c3ccccc3)C2=O)cc1 (stereo not given) | 166
CCNC(=S)Nc1ccc2c(c1)c(=O)n(C)n2Cc1ccc(Cl)cc1 | -4.46
COc1cccc(NC(=O)CN(C)C(=O)/C=C/c2cc(OC)ccc2OC)c1 | -101
COc1ccc(CCNC(=O)Nc2ccc3c(c2)c(=O)n(C)n3C)cc1OC | 24.5
Clc1ccc(-c2cccc3nccn23)cc1 | 8.31

###

# TGT: Kallikrein-7 (Homo sapiens)
# ASSAY INFO: activation of human kallikrein-7 proenzyme – biochemical, fluorescence intensity, triplicate, confirmation (AID 686949)
# CONDITION PARAMETERS: purified proKLK7, EDANS-DABCYL substrate fluorescence; at 7 µM; scaled: vehicle 0, mature enzyme 100
Hit rate of the full screen: of about 3,200 compounds, about 2,200 (69%) were called active.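 How the source made its calls: active means activation, as change over the incubation, above the mean of all tested compounds plus 3 SD (cut at about 13% in these data); inactive means the rest.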 So high a share suggests a set chosen from earlier hits. A selection follows.
Outcomes: 1.0 for active, 0.0 for inactive

COMPOUND | CLASS ASSIGNMENT
CC(=O)Nc1ccc(-c2cn3cccnc3n2)cc1 | 1.0
CCOc1c2ccc(C(=O)NCc3ccc4c(c3)OCO4)cc2nn1C | 0.0
CC(C)Cc1nc(Nc2ccc(S(=O)(=O)N3CCCC3)cc2)c2nnn(Cc3ccccc3)c2n1 | 1.0
COC(=O)c1cc(N2CCNCC2)nc2ccccc12 | 1.0
CC(OC(=O)c1ccccc1NCCO)C(=O)Nc1ccnn1C(C)C (stereo not drawn) | 1.0
CC(=O)Nc1nc2ncccn2c1-c1ccc(C(F)(F)F)cc1 | 1.0
O=C(Nc1nncs1)c1ccccc1NS(=O)(=O)c1cccs1 | 1.0
CC1(C)CN(c2ccc(-c3ccnc4ncnn34)cc2)C1=O | 1.0
Cc1nc2ccc(N)nc2nc1C | 1.0
CCS(=O)(=O)Nc1cc(C(=O)OC)ccc1C(=O)OC | 0.0
CCCCc1cc(=O)oc2cc(C)cc(OCc3nn[nH]n3)c12 | 1.0
O=C(O)c1ccc2c(c1)C(=O)N(c1ccc(/C=C/C(=O)c3ccccc3)cc1)C2=O | 1.0
Cc1cc(=O)oc2c3c(cc(OCC(=O)NCCC(=O)N[C@@H](C)C(=O)O)c12)OC(C)(C)CC3 | 1.0
O=C(/C=C/c1ccc2c(c1)OCCO2)c1ccc(O)cc1 | 0.0
Cc1cc(C)c(C#N)c(SCC(=O)NN2CC(=O)N(c3ccccc3F)CC2=O)n1 | 1.0
Cc1oc2nc(SCC(=O)Nc3ccc(S(N)(=O)=O)cc3)nc(NC(=O)c3ccccc3)c2c1C | 0.0
CCCCCC(=O)Nc1ccc(-c2cn3cccnc3n2)cc1 | 1.0
CC(C)(C)C(=O)Nc1ccc(-c2cn3cccnc3n2)cc1 | 1.0
Cc1c(C)c2c(OCC(=O)N[C@@H](C(=O)O)c3ccccc3)cc3c(c2oc1=O)CCC(C)(C)O3 | 1.0
Nc1ccc2nn(-c3ccc(Cl)cc3)nc2c1 | 1.0
Oc1ccc2ccc3cccc[n+]3c2c1 | 1.0
Cc1ccc(-c2nn(-c3ccccc3)cc2/C=C/C(=O)Nc2cccc(S(N)(=O)=O)c2)cc1 | 1.0
CCN1CCc2c(C#N)c(NCc3ccccc3)nc(NCCO)c2C1 | 1.0
